The reader will find reported IC50 values listed item by item below.
Test target: T1, hFc-human LIGHT (human)
T1 construct: also called hFc-huLIGHT
Protocol description: competition ELISA, LTβR-His coated, hFc-huLIGHT added
Provide the reading as a plain figure in nM.

• hum_LT-m58-4 (antibody, human IgG4, V domains shown, humanized from LT-m58) VH: QVQLVQSGAEVKKPGASVKVSCKASGYTFIDHIMNWVRKAPGQGLEWMGRIYPVSGETNYNQKFMGRATFTVDRSTSTVYMELSSLRSEDTAVYYCGRGSYYWNAMDYWGQGTLVTVSS VL: EIVMTQSPATLSVSPGERATLSCKASQSVDFDGESYMNWYQQKPGQPPRLLIYSASNLESGIPARFSGSGSGTEFTLTISSLQSEDFAVYYCQQSIEDPWTFGQGTKLEIK = 0.208

// below: IC50 requested for another binder
Entry hum_LT-m58-1 (antibody, human IgG4, V domains shown, humanized from LT-m58) VH: QVQLVQSGAEVKKPGASVKVSCKASGYTFIDHIMNWVRKAPGQGLEWMGRIYPVSGETNYNQKFMGRATFTVDRSTSTVYMELSSLRSEDTAVYYCGRGSYYWNAMDYWGQGTLVTVSS VL: EIVMTQSPATLSVSPGERATLSCKASQSVDFDGDSYMNWYQQKPGQPPRLLIYSASNLESGIPARFSGSGSGTEFTLTISSLQSEDFAVYYCQQSIEDPWTFGQGTKLEIK needs its IC50 filled in; supply it. 0.291
